# SYSTEM: UniProt O80574
# Sequence (O80574 52-347): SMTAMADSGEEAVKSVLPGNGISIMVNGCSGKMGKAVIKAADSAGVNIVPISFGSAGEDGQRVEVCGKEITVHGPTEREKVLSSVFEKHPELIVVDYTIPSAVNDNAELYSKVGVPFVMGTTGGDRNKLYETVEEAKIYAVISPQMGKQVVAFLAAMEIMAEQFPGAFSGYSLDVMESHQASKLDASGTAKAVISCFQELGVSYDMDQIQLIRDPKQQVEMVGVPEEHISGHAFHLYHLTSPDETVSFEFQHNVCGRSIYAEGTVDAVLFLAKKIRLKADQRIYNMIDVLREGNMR
ATTRIBUTE_MEASURED: IC50 (µM)
Give the value in µM but do not write µM after it.

Lookup: Provide only the value of recorded IC50 for `O=C(O)c1cccc(C(=O)O)n1`
Found: 140

* * *

# SYSTEM: UniProtKB Q8LB01
# Sequence (Q8LB01 54-349): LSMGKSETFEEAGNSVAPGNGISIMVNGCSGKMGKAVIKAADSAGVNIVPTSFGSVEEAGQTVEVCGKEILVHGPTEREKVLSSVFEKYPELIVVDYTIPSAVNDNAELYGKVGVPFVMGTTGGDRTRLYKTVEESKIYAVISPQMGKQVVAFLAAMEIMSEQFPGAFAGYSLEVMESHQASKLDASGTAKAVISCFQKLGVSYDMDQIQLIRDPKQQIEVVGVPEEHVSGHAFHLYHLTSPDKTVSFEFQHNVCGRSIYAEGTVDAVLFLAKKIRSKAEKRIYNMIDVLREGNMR
ATTRIBUTE_MEASURED: IC50 (µM)
Give the value in µM but do not write µM after it.

Lookup: Quote IC50 with test system UniProtKB Q8LB01 for `O=C(O)c1cccc(C(=O)O)n1`
Found: 470

The origin of these recorded values is paper PMC10203105.
